- Tested on: HEPG2
- procedure.summary: Euclidean distance of Cell Painting phenotypic profile (signed KS, 77 features) to DMSO centroid (dimensionless distance); 5 or 10 uM (library dependent); higher = stronger phenotypic change vs DMSO (phenoactivity)
- recorded.conditions: 48 h
Where a name gives a salt, the structure may show the parent alone.
Catalogue of Euclidean distance readings, one per entry.
# output: bare number, no unit

Worked cases, answers included:
Cn1c(=O)cc(N2CCC[C@@H](N)C2)n(Cc2cc(F)ccc2C#N)c1=O [Trelagliptin]    0.668
CCN1CCC[C@H]1CNC(=O)c1cc(S(N)(=O)=O)ccc1OC [Levosulpiride]    1.73

// query Euclidean distance value for entry Cc1nccn1CC1CCc2c(c3ccccc3n2C)C1=O (centres undefined) [Ondansetron Hydrochloride Dihydrate] 1.39

// query Euclidean distance value for entry CCCC1O[C@@H]2C[C@H]3[C@@H]4CCC5=CC(=O)C=C[C@]5(C)[C@H]4[C@@H](O)C[C@]3(C)[C@]2(C(=O)CO)O1 (some centres undefined) [Budesonide] 2.09

// query Euclidean distance value for entry `CONC(=O)Nc1ccc(-c2sc3c(c2CN(C)C)c(=O)n(-c2ccc(OC)nn2)c(=O)n3Cc2c(F)cccc2F)cc1` 0.841

// query Euclidean distance value for entry `CCCCc1nc(C)c(CC(=S)N(C)C)c(=O)n1Cc1ccc(-c2ccccc2-c2nnn[nH]2)cc1` 0.679

// query Euclidean distance value for entry NC(CO)C(=O)NNCc1ccc(O)c(O)c1O (centres undefined) [Benserazide HCl] 0.666

// query Euclidean distance value for entry Cc1c(N)c(=O)n(-c2ccccc2)n1C [4-Aminoantipyrine] 0.845

// query Euclidean distance value for entry `CCCCC[C@H](O)/C=C/[C@H]1[C@H](O)CC(=O)[C@@H]1CCCCCCC(=O)O` 0.927

// query Euclidean distance value for entry CCCCN1CCCCC1C(=O)Nc1c(C)cccc1C (centres undefined) [Bupivacaine HCl] 0.991

// query Euclidean distance value for entry `Cc1cc(-c2ccc(/N=N/c3ccc4c(S(=O)(=O)O)cc(S(=O)(=O)O)c(N)c4c3O)c(C)c2)ccc1/N=N/c1ccc2c(S(=O)(=O)O)cc(S(=O)(=O)O)c(N)c2c1O` 0.481

// query Euclidean distance value for entry `C=C(NC(=O)C(=C)NC(=O)c1csc(C2=N[C@@H]3c4csc(n4)[C@H]4NC(=O)c5csc(n5)[C@H]([C@](C)(O)[C@@H](C)O)NC(=O)[C@H]5CSC(=N5)/C(=C/C)NC(=O)[C@H]([C@@H](C)O)NC(=O)c5csc(n5)[C@]3(CC2)NC(=O)[C@H](C)NC(=O)C(=C)NC(=O)[C@H](C)NC(=O)[C@H]([C@@H](C)CC)N[C@@H]2C=Cc3c([C@H](C)O)cc(nc3[C@H]2O)C(=O)O[C@@H]4C)n1)C(N)=O` 4.36

// query Euclidean distance value for entry `CCOc1ccn(-c2ccc(F)cc2)c(=O)c1C(=O)Nc1ccc(Oc2ccnc(N)c2Cl)c(F)c1` 1.66

// query Euclidean distance value for entry `O=C(O)CC(O)(CC(=O)O)C(=O)O` 0.774
